Target system: PI3K β (p110β/p85α) (Homo sapiens)
Construct: purchased Upstate / Millipore Corporation
Protocol details: PI 3-Kinase (human) HTRF assay, PI3K β
Assay type: biochemical
Experimental context: read-out: PI3K β IC50
pIC50: −log10 of the molar value.
Measurement type: pIC50

Dear colleague, I am looking for the recorded pIC50 of the following molecule: Nc1nc2cc(-c3ccc4ncc(C(=O)N5CCC(O)CC5)n4c3)ccc2o1 [Compound 162] < 5.00

Dear colleague, I am looking for the recorded pIC50 of the following molecule: Nc1nc2cc(-c3ccc4ncn(CCCN5CCOCC5)c(=O)c4c3)ccc2o1 [Compound 290] < 5.00

Dear colleague, I am looking for the recorded pIC50 of the following molecule: O=C(c1cnc2ccc(-c3cnc(Cl)c(NS(=O)(=O)c4ccccc4)c3)cn12)N1CCOCC1 [Compound 451] > 6.00

Dear colleague, I am looking for the recorded pIC50 of the following molecule: Nc1nc2cc(-c3ccc4ncc(C(=O)N5CC(F)(F)C5)n4c3)ccc2o1 [Compound 473] < 5.00

Dear colleague, I am looking for the recorded pIC50 of the following molecule: Nc1nc2cc(-c3ccc4ncc(NCCN5CCCC5)nc4c3)ccc2o1 [Compound 219] > 6.00

Dear colleague, I am looking for the recorded pIC50 of the following molecule: Nc1nc2cc(-c3ccn4ncc(-c5ccncc5)c4n3)ccc2o1 [Compound 62] > 7.00

Dear colleague, I am looking for the recorded pIC50 of the following molecule: CN1CCCN(C(=O)c2cnc3ccc(-c4ccc5oc(N)nc5c4)cn23)CC1 [Compound 140] > 5.00

Dear colleague, I am looking for the recorded pIC50 of the following molecule: Cc1nc2ccc(-c3ccc4oc(N)nc4c3)nn2c1-c1ccncc1 [Compound 56] > 6.00

Dear colleague, I am looking for the recorded pIC50 of the following molecule: COC(=O)N1CCC(n2ncc3c(N4CCOCC4)nc(-c4ccc5oc(N)nc5c4)nc32)CC1 [Compound 330] > 5.00

Dear colleague, I am looking for the recorded pIC50 of the following molecule: Nc1nc2cc(-c3ccc4ncc(N5CCN(C(=O)C6(N)CC6)CC5)nc4c3)ccc2o1 [Compound 226] < 5.00

Dear colleague, I am looking for the recorded pIC50 of the following molecule: CC(=O)Nc1cn2cc(-c3ccc4oc(N)nc4c3)ccc2n1 [Compound 234] > 6.00

Dear colleague, I am looking for the recorded pIC50 of the following molecule: Nc1nc2cc(-c3ccc4ncc(C(=O)N5CCC6(C5)OCCO6)n4c3)ccc2o1 [Compound 499] < 5.00

----------
Target system: PI3K β (p110β/p85α) (Homo sapiens)
Construct: purchased Upstate / Millipore Corporation
Protocol details: PI 3-Kinase (human) HTRF assay, PI3K β
Format: biochemical
Experimental context: read-out: PI3K β IC50
Form field: IC50 (one value per entry).

{"Smiles code": "Nc1nc2cc(-c3ccc4ncn(CCCN5CCCC5)c(=O)c4c3)ccc2o1", "IC50": "< 10 µM"}
{"Smiles code": "Nc1nc2cc(-c3cc(F)c4ncc(C(=O)N5CCOCC5)n4c3)ccc2o1", "IC50": "> 10 µM"}
{"Smiles code": "Nc1nc2cc(-c3ccc4ncc(N5CC(N6CCOCC6)C5)nc4c3)cc(Cl)c2o1", "IC50": "< 1 µM"}

Let us move to another entry and its IC50.
Give PI3K β (p110β/p85α) (Homo sapiens) IC50 for `Nc1nc2nc(-c3ccc4ncc(C(=O)N5CCOCC5)n4c3)ccc2o1` > 10 µM

----------
Target system: PI3K β (p110β/p85α) (Homo sapiens, UniProt P42338)
Construct: purchased Upstate / Millipore Corporation
Sequence (P42338 whole entry): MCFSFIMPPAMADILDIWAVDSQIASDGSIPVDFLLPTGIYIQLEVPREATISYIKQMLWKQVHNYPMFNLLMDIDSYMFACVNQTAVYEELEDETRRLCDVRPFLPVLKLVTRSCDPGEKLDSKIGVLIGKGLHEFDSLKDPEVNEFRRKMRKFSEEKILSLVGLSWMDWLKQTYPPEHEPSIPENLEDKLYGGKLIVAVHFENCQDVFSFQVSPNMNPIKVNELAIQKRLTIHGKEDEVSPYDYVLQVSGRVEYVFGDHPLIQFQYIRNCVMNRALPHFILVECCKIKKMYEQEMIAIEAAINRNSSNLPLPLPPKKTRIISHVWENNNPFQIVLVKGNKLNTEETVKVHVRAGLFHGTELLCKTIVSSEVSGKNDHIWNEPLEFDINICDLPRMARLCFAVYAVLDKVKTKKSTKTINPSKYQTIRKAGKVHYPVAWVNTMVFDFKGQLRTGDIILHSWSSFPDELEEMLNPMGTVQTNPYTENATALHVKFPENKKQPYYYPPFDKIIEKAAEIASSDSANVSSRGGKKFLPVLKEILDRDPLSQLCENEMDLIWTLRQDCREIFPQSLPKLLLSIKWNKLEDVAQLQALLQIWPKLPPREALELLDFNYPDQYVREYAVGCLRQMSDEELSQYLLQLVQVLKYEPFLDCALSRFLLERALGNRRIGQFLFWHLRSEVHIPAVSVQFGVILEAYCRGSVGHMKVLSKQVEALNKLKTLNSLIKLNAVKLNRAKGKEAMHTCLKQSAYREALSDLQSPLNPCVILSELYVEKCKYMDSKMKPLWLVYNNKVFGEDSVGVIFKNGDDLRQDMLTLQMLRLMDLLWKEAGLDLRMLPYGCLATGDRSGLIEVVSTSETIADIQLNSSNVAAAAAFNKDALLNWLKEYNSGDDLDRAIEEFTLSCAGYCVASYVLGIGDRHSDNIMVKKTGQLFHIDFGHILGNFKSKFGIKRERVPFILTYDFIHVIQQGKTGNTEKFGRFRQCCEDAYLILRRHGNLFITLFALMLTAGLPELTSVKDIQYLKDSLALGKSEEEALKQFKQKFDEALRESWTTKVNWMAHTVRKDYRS
Sequence (P27986 whole entry partner): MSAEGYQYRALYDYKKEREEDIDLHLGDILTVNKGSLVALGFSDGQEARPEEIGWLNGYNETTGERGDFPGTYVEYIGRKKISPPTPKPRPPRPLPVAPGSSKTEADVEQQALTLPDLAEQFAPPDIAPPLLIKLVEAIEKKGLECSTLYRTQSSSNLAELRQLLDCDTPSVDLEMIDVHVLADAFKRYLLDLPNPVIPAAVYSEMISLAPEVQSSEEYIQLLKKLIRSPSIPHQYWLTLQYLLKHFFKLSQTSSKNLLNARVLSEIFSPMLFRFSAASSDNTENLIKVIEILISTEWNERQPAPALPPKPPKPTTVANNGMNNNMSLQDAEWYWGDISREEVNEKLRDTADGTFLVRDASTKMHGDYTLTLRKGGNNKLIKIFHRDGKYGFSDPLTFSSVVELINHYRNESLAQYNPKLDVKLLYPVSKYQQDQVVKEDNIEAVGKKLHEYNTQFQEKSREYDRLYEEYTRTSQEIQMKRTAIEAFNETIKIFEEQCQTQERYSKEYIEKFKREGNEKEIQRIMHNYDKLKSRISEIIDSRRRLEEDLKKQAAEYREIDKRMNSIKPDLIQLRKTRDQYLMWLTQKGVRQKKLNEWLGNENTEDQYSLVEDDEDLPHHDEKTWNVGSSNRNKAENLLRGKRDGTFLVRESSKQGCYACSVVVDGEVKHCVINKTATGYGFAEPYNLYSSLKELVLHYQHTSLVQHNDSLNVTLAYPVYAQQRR
Protocol details: PI 3-Kinase (human) HTRF assay, PI3K β
Assay type: biochemical
Experimental context: read-out: PI3K β IC50
Measurement type: IC50

Field: example entries. Status: answers known.
{"Compound": "Nc1nc2cc(-c3ccc4ncc(C(=O)N5CC(F)C5)n4c3)ccc2o1", "Value observed": "< 10 µM"}
{"Compound": "Nc1nc2cc(-c3ccc4ncc(C(=O)N5CC[C@@H](O)C5)n4c3)ccc2o1", "Value observed": "< 10 µM"}
{"Compound": "CS(=O)(=O)CCN1CCN(c2cnc3ccc(-c4ccc5oc(N)nc5c4)cc3n2)CC1", "Value observed": "< 1 µM"}
{"Compound": "CN1CCN(C2CN(C(=O)c3cnc4ccc(-c5ccc6oc(N)nc6c5)cn34)C2)CC1", "Value observed": "> 10 µM"}
{"Compound": "CCN1CCN(c2cnc3ccc(-c4ccc5oc(N)nc5c4)cc3n2)C(=O)C1", "Value observed": "> 10 µM"}

Dear colleague, I am looking for the recorded IC50 of the following compound: `Nc1nc2cc(-c3ccc4sc(N)nc4c3)ccc2o1` < 1 µM

Dear colleague, I am looking for the recorded IC50 of the following compound: `C[C@H]1CN(C2CN(C(=O)c3cnc4ccc(-c5ccc6oc(N)nc6c5)cn34)C2)CCN1` < 10 µM

----------
Target system: PI3K α (p110α/p85α) (Homo sapiens, UniProt P42336)
Construct: purchased Upstate / Millipore Corporation
Sequence (P42336 whole entry): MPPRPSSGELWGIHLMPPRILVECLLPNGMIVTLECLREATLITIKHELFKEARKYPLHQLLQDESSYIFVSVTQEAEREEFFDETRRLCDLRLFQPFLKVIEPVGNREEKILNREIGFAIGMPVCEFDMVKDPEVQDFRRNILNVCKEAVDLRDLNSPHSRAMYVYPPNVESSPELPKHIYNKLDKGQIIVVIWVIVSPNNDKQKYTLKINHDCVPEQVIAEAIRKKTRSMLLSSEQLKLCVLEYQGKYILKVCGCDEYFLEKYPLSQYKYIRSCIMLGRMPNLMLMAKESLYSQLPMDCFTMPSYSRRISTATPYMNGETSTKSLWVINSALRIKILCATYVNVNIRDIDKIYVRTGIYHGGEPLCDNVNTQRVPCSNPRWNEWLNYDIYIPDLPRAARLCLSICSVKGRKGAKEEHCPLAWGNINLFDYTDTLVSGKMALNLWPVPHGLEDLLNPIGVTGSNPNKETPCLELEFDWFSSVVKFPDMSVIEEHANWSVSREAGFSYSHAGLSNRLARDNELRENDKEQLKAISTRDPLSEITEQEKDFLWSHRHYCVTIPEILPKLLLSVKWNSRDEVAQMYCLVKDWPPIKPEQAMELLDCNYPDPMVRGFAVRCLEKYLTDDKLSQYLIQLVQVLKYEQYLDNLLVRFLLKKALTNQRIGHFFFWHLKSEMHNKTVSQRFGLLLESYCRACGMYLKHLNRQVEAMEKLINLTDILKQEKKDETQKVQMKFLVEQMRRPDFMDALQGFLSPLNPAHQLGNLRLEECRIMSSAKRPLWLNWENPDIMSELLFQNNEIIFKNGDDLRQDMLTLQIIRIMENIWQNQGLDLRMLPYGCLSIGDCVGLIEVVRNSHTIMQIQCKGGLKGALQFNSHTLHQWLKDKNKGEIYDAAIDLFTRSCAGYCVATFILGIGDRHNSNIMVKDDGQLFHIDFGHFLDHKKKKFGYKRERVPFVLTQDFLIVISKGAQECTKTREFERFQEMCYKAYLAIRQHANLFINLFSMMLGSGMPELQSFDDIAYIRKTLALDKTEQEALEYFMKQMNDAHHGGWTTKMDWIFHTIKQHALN
Sequence (P27986 whole entry partner): as the sequence (P27986 whole entry partner) above
Protocol details: PI 3-Kinase (human) HTRF assay, PI3K α
Type: biochemical
Experimental context: read-out: PI3K α IC50
Measurement type: IC50

{"Compound": "Nc1nc2cc(-c3ccc4ncc(N5CC(N6CCCC6)C5)nc4c3)ccc2o1 [Compound 314]", "Target system": "PI3K α (p110α/p85α) (Homo sapiens, UniProt P42336)", "IC50": "< 1000 nM"}

Dear colleague, I am looking for the recorded IC50 of the following compound: CC(=O)Nc1cn2cc(-c3ccc4oc(N)nc4c3)ccc2n1 [Compound 234] < 100 nM

Dear colleague, I am looking for the recorded IC50 of the following compound: Nc1nc2cc(-c3ccc4nccc(-c5cn[nH]c5)c4c3)ccc2o1 [Compound 20] < 100 nM

Dear colleague, I am looking for the recorded IC50 of the following compound: Nc1nc2cc(-c3ccc4ncc(C(=O)N5CC5)n4c3)ccc2o1 [Compound 340] < 1000 nM

Dear colleague, I am looking for the recorded IC50 of the following compound: Nc1nc2cc(-c3ccc4ncc(C(=O)N5CCC6(C5)OCCO6)n4c3)ccc2o1 [Compound 499] < 1000 nM

Dear colleague, I am looking for the recorded IC50 of the following compound: CS(=O)(=O)N1CCN(c2cnc3ccc(-c4ccc5oc(N)nc5c4)cc3n2)CC1 [Compound 86] < 100 nM

Dear colleague, I am looking for the recorded IC50 of the following compound: Cc1cc2oc(N)nc2cc1-c1ccc2ncc(N3CC(N4CCOCC4)C3)nc2c1 [Compound 353] < 10000 nM

Dear colleague, I am looking for the recorded IC50 of the following compound: O=C(c1cnc2ccc(-c3cccc(NS(=O)(=O)c4ccc(F)cc4F)c3)cn12)N1CCOCC1 [Compound 454] < 10000 nM

----------
Target system: PI3K γ (p110γ) (Homo sapiens, UniProt P48736)
Construct: purchased Upstate / Millipore Corporation
Sequence (P48736 whole entry): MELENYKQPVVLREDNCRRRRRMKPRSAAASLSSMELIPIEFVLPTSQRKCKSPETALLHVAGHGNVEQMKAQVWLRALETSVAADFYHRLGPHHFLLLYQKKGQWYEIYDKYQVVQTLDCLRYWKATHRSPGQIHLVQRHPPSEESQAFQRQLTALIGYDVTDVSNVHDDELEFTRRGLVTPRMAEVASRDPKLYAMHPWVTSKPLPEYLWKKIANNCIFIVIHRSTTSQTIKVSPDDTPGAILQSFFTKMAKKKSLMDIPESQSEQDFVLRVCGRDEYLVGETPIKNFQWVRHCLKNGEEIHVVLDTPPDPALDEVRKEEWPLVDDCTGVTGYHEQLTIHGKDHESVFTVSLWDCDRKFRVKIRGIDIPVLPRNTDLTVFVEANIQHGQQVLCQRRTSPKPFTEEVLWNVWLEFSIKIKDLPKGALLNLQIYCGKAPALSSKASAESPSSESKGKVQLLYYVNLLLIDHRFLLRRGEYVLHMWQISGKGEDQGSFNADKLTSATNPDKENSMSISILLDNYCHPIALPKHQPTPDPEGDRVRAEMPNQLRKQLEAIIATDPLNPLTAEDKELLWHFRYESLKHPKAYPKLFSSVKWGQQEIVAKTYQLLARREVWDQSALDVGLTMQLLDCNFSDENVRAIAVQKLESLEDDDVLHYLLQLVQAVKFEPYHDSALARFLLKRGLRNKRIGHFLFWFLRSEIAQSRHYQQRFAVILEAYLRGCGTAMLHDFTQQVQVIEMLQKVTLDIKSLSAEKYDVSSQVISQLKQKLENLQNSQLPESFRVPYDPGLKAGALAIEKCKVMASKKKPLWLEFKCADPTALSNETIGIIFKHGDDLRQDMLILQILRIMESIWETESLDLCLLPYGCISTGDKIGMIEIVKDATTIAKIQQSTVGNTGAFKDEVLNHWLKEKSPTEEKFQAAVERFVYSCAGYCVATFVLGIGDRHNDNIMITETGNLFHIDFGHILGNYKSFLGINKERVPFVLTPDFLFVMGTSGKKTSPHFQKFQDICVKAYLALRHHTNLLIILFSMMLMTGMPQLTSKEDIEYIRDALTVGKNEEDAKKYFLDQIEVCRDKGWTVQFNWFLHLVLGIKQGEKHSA
Protocol details: PI 3-Kinase (human) HTRF assay, PI3K γ
Type: biochemical
Experimental context: read-out: PI3K γ IC50
pIC50: −log10 of the molar value.
Measurement type: pIC50

{"Compound": "CN(C)C1CCN(c2cnc3ccc(-c4ccc5oc(N)nc5c4)cc3n2)CC1", "Target system": "PI3K γ (p110γ) (Homo sapiens, UniProt P48736)", "pIC50": "> 6.00"}
{"Compound": "CN1CCCN(C(=O)c2cnc3ccc(-c4ccc5oc(N)nc5c4)cn23)CC1", "Target system": "PI3K γ (p110γ) (Homo sapiens, UniProt P48736)", "pIC50": "< 5.00"}
{"Compound": "Nc1nc2cc(-c3ccc4ncc(C(=O)N5CCNCC5)n4c3)ccc2o1", "Target system": "PI3K γ (p110γ) (Homo sapiens, UniProt P48736)", "pIC50": "< 5.00"}
{"Compound": "Nc1nc2cc(-c3ccc4ncc(C(=O)N5CC[C@@H](N6CCOCC6)C5)n4c3)ccc2o1", "Target system": "PI3K γ (p110γ) (Homo sapiens, UniProt P48736)", "pIC50": "> 6.00"}

Give PI3K γ (p110γ) (Homo sapiens, UniProt P48736) pIC50 for `Nc1nc2cc(-c3ccc4ncc(-c5ccc(N6CCOCC6)nc5)n4c3)ccc2o1` > 6.00

Give PI3K γ (p110γ) (Homo sapiens, UniProt P48736) pIC50 for `CCN(CC)CC(=O)N1CCN(c2cnc3ccc(-c4ccc5oc(N)nc5c4)cc3n2)CC1` > 5.00

----------
Target system: PI3K α (p110α/p85α) (Homo sapiens)
Construct: purchased Upstate / Millipore Corporation
Protocol details: PI 3-Kinase (human) HTRF assay, PI3K α
Type: biochemical
Experimental context: read-out: PI3K α IC50
Form field: IC50 (one value per entry).

{"Compound": "Nc1nc2cc(-c3ccc4ncc(N5CCN(CCO)CC5)nc4c3)ccc2o1", "IC50": "< 100 nM"}
{"Compound": "CC(C)(N)C(=O)N1CCN(c2cnc3ccc(-c4ccc5oc(N)nc5c4)cc3n2)CC1", "IC50": "< 100 nM"}
{"Compound": "Nc1nc2cc(-c3ccc4ncc(C(=O)N5CC[C@@H](O)C5)n4c3)ccc2o1", "IC50": "< 100 nM"}
{"Compound": "CC1CN(c2cnc3ccc(-c4ccc5oc(N)nc5c4)cc3n2)CCN1 (stereo not drawn)", "IC50": "< 100 nM"}
{"Compound": "Nc1nc2ccc(-c3cc(F)c4ncc(C(=O)N5CCOCC5)n4c3)cc2o1", "IC50": "< 10000 nM"}

Let us move to another entry and its IC50.
Dear colleague, I am looking for the recorded IC50 of the following compound: `CNS(=O)(=O)c1cncc(-c2ccc3ncc(C(=O)N4CCOCC4)n3c2)c1` < 10000 nM
